# target: rat μ (C6-MOR) opioid receptor (Rattus norvegicus, UniProt P33535)
# Construct: expressed in transfected cells
# Sequence (P33535 whole entry): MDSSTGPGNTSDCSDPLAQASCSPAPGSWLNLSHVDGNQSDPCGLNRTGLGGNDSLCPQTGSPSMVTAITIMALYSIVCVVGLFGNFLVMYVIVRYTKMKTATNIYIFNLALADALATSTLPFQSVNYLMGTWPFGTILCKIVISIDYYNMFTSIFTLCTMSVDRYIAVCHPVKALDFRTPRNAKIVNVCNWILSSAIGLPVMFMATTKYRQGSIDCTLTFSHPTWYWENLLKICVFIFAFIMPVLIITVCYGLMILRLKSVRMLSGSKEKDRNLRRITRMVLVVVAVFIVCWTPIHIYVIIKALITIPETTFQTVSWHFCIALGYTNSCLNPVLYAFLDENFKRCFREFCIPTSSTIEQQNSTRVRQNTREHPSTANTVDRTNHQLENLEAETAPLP
# testMethodNotes: Stimulation of [35S]GTPγS binding, MOR
# Type: biochemical
# testParameters: [35S]GTPγS maximal stimulation compared with 10 μM standard DAMGO
Reported Emax values for a set of compounds
measuredProperty: Emax

* Cc1cc(O)cc(C)c1C[C@H](N)C(=O)N[C@@H]1CCNc2ccc(CC3Cc4ccccc4C3C)cc21 (stereo partly drawn) | 92.4%
* Cc1cc(O)cc(C)c1C[C@H](N)C(=O)N[C@@H]1CCNc2c(C(=O)Nc3ccccc3)cc(Cc3ccccc3)cc21 | 62.7%
* CC(=O)N1CC[C@@H](NC(=O)[C@@H](N)Cc2c(C)cc(O)cc2C)c2cc(CN3CCc4ccc(F)cc4C3)ccc21 | 99.6%
* CC(=O)N1CC[C@@H](NC(=O)[C@@H](N)Cc2c(C)cc(O)cc2C)c2cc(Cc3ccccc3)cc(C)c21 | 86%
* Cc1cc(O)cc(C)c1C[C@H](N)C(=O)N[C@@H]1CCNc2c(Cc3ccccc3)cccc21 | 17.9%
* Cc1cc(O)cc(C)c1C[C@H](N)C(=O)N[C@@H]1CC[C@H](C)c2ccc(Cc3ccccc3)cc21 | 72.3%
* Cc1cc(O)cc(C)c1C[C@H](N)C(=O)N[C@@H]1CCNc2c(Br)cc(Cc3ccccc3)cc21 | 73%
* Cc1cc(O)cc(C)c1C[C@H](N)C(=O)N[C@@H]1CCNc2c(-c3cc4ccccc4o3)cc(Cc3ccccc3)cc21 | 100%
* CCCCCc1ccc2c(c1)[C@H](NC(=O)[C@@H](N)Cc1c(C)cc(O)cc1C)CCN2 | 20.2%
* Cc1cc(O)cc(C)c1C[C@H](N)C(=O)N[C@@H]1CCCc2ccc(-c3cccc4ccccc34)cc21 | 0.34%
* COC(=O)N1CC[C@@H](NC(=O)[C@@H](N)Cc2c(C)cc(O)cc2C)c2cc(CC3Cc4ccccc4C3)ccc21 | 82.5%
* Cc1cc(O)cc(C)c1C[C@H](N)C(=O)N[C@@H]1CCNc2c(CCc3ccccc3)cc(Cc3ccccc3)cc21 | 78.4%
* CCCc1cc(Cc2ccccc2)cc2c1NCC[C@H]2NC(=O)[C@@H](N)Cc1c(C)cc(O)cc1C | 89.5%
* COc1cc2c(cc1Cc1ccccc1)[C@H](NC(=O)[C@@H](N)Cc1c(C)cc(O)cc1C)CCN2 | 98.4%
* Cc1cc(O)cc(C)c1C[C@H](N)C(=O)N[C@@H]1CCNc2ccc(-c3ccccc3)cc21 | 23.7%
* Cc1cc(O)cc(C)c1C[C@H](N)C(=O)N[C@@H]1CCNc2ccc(CC3Cc4ccc(O)cc4C3)cc21 (stereo partly drawn) | 16.2%
* Cc1cc(O)cc(C)c1C[C@H](N)C(=O)N[C@@H]1CCNc2c(-c3ccoc3)cc(Cc3ccccc3)cc21 | 103%
* Cc1cc(O)cc(C)c1C[C@H](N)C(=O)NC1CCNc2ccc(Oc3ccccc3)cc21 (stereo partly drawn) | 68%
* Cc1cc(O)cc(C)c1C[C@H](N)C(=O)NC1CCc2ccc(Cc3ccccc3)cc21 (stereo partly drawn) | 42.6%
* Cc1cc(O)cc(C)c1C[C@H](N)C(=O)N[C@H]1CCN(C)c2ccc(Cc3ccccc3)cc21 | 72.2%
* CCCCCCc1ccc2c(c1)[C@H](NC(=O)[C@@H](N)Cc1c(C)cc(O)cc1C)CCN2 | 35.9%
